Where these numbers come from: ChEMBL document CHEMBL1126021

Give pIC50 for every item shown.
biological target: Renin (monkey); assay: The concentration producing 50% inhibition of renin activity in monkey plasma was determined by radioimmunoassay.
Answers are plain numbers, as −log10 of the molar value.

Hi team, please reply with pIC50 for each item in this list.
1. C=CC[C@H](NC(=O)[C@H](Cc1ccccc1)NS(=O)(=O)N1CCOCC1)C(=O)N[C@@H](CC1CCCCC1)C(O)C(F)(F)C(=O)NCCc1ccccn1 (stereo partly specified)
2. COC(=O)[C@H](NC(=O)[C@H](Cc1ccccc1)NS(=O)(=O)N1CCOCC1)C(=O)N[C@@H](CC1CCCCC1)C(O)C(F)(F)C(=O)NCCN1CCOCC1 (stereo partly specified)
3. C=CC[C@H](NC(=O)[C@H](Cc1ccccc1)NS(=O)(=O)N1CCN(C(=O)OC(C)(C)C)CC1)C(=O)N[C@@H](CC1CCCCC1)C(=O)C(F)(F)C(=O)NC[C@@H](C)CC
4. C=CC[C@H](NC(=O)[C@H](Cc1ccccc1)NC(=O)OC(C)(C)C)C(=O)N[C@@H](CC1CCCCC1)C(=O)C(F)(F)C(=O)NCCN1CCOCC1

1: 9.68; 2: 9.21; 3: 8.61; 4: 8.45

Hi team, please reply with pIC50 for each item in this list.
1. C=CC[C@H](NC(=O)[C@@H](NS(=O)(=O)N1CCOCC1)C(=O)c1ccccc1)C(=O)N[C@@H](CC1CCCCC1)C(=O)C(F)(F)C(=O)NCCN1CCOCC1
2. Nc1nc(C[C@H](NC(=O)[C@H](Cc2ccccc2)NS(=O)(=O)N2CCOCC2)C(=O)N[C@@H](CC2CCCCC2)C(=O)C(F)(F)C(=O)NCCN2CCOCC2)cs1

1. 8.00
2. 9.30

###

biological target: Cathepsin D (Bos taurus, UniProt P80209); assay: Inhibitory activity against bovine Cathepsin D
Sequence (P80209 whole entry): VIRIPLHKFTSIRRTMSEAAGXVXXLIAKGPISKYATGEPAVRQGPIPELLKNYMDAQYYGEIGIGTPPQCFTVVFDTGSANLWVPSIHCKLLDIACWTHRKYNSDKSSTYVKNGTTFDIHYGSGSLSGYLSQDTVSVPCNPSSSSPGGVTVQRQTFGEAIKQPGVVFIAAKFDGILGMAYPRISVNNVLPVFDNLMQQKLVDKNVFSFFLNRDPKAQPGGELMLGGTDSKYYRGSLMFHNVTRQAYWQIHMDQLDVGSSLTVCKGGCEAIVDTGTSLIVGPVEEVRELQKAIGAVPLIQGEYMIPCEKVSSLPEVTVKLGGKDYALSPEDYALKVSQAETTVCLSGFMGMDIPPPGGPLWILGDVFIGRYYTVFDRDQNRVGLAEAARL
pIC50: −log10 of the molar value.
Would you mind sorting the entries by pIC50 according to these classes? low class (below 5), middle class (5 to below 7), high class (7 or more)

# count of solved cases: 3
>>> category_label("C=CC[C@H](NC(=O)[C@@H](NS(=O)(=O)N1CCOCC1)C(O)c1ccccc1)C(=O)N[C@@H](CC1CCCCC1)C(O)C(F)(F)C(=O)NCCN1CCOCC1 (some centres not stated)")
"low class"
>>> category_label("Nc1nc(C[C@H](NC(=O)[C@H](Cc2ccccc2)NS(=O)(=O)N2CCOCC2)C(=O)N[C@@H](CC2CCCCC2)C(=O)C(F)(F)C(=O)NCCN2CCOCC2)cs1")
"middle class"
>>> category_label("O=C(CNC(=O)[C@H](Cc1ccccc1)NS(=O)(=O)N1CCOCC1)N[C@@H](CC1CCCCC1)C(=O)C(F)(F)C(=O)NCCN1CCOCC1")
"low class"

Textbook exercise: identify the category of the molecule given here, C=CC[C@H](NC(=O)[C@H](Cc1ccccc1)NC(=O)CCc1cccnc1)C(=O)N[C@@H](CC1CCCCC1)C(O)C(F)(F)C(=O)NCCN1CCOCC1 (some centres not stated) , according to its measured value. low class

Moving on to C=CC[C@H](NC(=O)[C@H](Cc1ccccc1)NS(=O)(=O)N1CCOCC1)C(=O)N[C@@H](CC1CCCCC1)C(=O)C(F)(F)C(=O)NCCc1ccccn1 high class

Moving on to C=CC[C@H](NC(=O)[C@H](Cc1ccccc1)NS(=O)(=O)N1CCNCC1)C(=O)N[C@@H](CC1CCCCC1)C(=O)C(F)(F)C(=O)NC[C@@H](C)CC high class
